The values you see were collected from ChEMBL document CHEMBL1275590.

Give Cmax for every item shown.
TEST_PROTOCOL: Cmax in Swiss Webster mouse at 1 mg/kg, iv by HPLC-MS/MS analysis
Assay type: ADME, organism-based
Set-up: dose 1 mg/kg, route intravenous
ASSAY_CONDITIONS: in vivo
Respond numerically; units are nM and should not be typed.

Ask: // query Cmax value for entry CCOc1cc(NC(=N)c2ccccn2)ccc1-c1ccc(-c2ccc(NC(=N)c3ccccn3)cc2OCC)o1
Result: 370

Ask: // query Cmax value for entry CC(C)Oc1cc(NC(=N)c2ccccn2)ccc1-c1ccc(-c2ccc(NC(=N)c3ccccn3)cc2OC(C)C)o1
Result: 1090

====

TEST_PROTOCOL: Tmax in Swiss Webster mouse at 131 mg/kg, po by HPLC-MS/MS analysis
Format: ADME, organism-based
Design: dose 131 mg/kg, route oral
ASSAY_CONDITIONS: in vivo
PROPERTY: Tmax (h)
Respond numerically; units are h and should not be typed.

Ask: // query Tmax value for entry CCOc1cc(NC(=N)c2ccccn2)ccc1-c1ccc(-c2ccc(NC(=N)c3ccccn3)cc2OCC)o1
Result: 2

====

TEST_PROTOCOL: Tmax in Swiss Webster mouse at 16.5 mg/kg, po by HPLC-MS/MS analysis
Type: ADME, organism-based
Parameters: dose 16.5 mg/kg, route oral
ASSAY_CONDITIONS: in vivo
PROPERTY: Tmax (h)
Respond numerically; units are h and should not be typed.

Ask: // query Tmax value for entry CCOc1cc(NC(=N)c2ccccn2)ccc1-c1ccc(-c2ccc(NC(=N)c3ccccn3)cc2OCC)o1
Result: 2

====

Test system: Mus musculus
TEST_PROTOCOL: Renal toxicity in BALB/c mouse assessed as blood urea nitrogen level in serum at 50 mg/kg/day, po administered for five days (Rvb= 29 mg/dl)
Type: organism-based
Set-up: route oral
ASSAY_CONDITIONS: in vivo
PROPERTY: Activity (mg/dL)
Respond numerically; units are mg/dL and should not be typed.

Ask: // query Activity value for entry CCOc1cc(NC(=N)c2ccccn2)ccc1-c1ccc(-c2ccc(NC(=N)c3ccccn3)cc2OCC)o1
Result: 27

Ask: // query Activity value for entry CC(C)Oc1cc(NC(=N)c2ccccn2)ccc1-c1ccc(-c2ccc(NC(=N)c3ccccn3)cc2OC(C)C)o1
Result: 25

====

TEST_PROTOCOL: Oral bioavailability in Swiss Webster mouse at 16.5 mg/kg by HPLC-MS/MS analysis
Format: ADME, organism-based
ASSAY_CONDITIONS: in vivo
PROPERTY: bioavailability
In your response, the unit should come after the numeric value.

Ask: // query bioavailability value for entry CCOc1cc(NC(=N)c2ccccn2)ccc1-c1ccc(-c2ccc(NC(=N)c3ccccn3)cc2OCC)o1
Result: 3.3%

====

System: Mus musculus
TEST_PROTOCOL: Hepatotoxicity in BALB/c mouse assessed as phosphorus level in serum at 25 mg/kg/day, po administered for five days (Rvb= 5.3 mg/dl)
Type: toxicity, organism-based
Parameters: route oral
ASSAY_CONDITIONS: in vivo
Give Activity for every item shown.
In your response, the unit should come after the numeric value.

Ask: // query Activity value for entry CC(C)Oc1cc(NC(=N)c2ccccn2)ccc1-c1ccc(-c2ccc(NC(=N)c3ccccn3)cc2OC(C)C)o1
Result: 7 mg/dL

Ask: // query Activity value for entry CCOc1cc(NC(=N)c2ccccn2)ccc1-c1ccc(-c2ccc(NC(=N)c3ccccn3)cc2OCC)o1
Result: 6.9 mg/dL

====

Give Activity for every item shown.
Test system: Mus musculus
TEST_PROTOCOL: Renal toxicity in BALB/c mouse assessed as phosphorus level in serum at 50 mg/kg/day, po administered for five days (Rvb= 5.3 mg/dl)
Format: organism-based
Design: route oral
ASSAY_CONDITIONS: in vivo
Respond numerically; units are mg/dL and should not be typed.

Ask: // query Activity value for entry CCOc1cc(NC(=N)c2ccccn2)ccc1-c1ccc(-c2ccc(NC(=N)c3ccccn3)cc2OCC)o1
Result: 7.2

Ask: // query Activity value for entry CC(C)Oc1cc(NC(=N)c2ccccn2)ccc1-c1ccc(-c2ccc(NC(=N)c3ccccn3)cc2OC(C)C)o1
Result: 8.3

====

Test system: Leishmania amazonensis
TEST_PROTOCOL: Antileishmanial activity against intracellular Leishmania amazonensis amastigotes
Type: functional, organism-based
Give IC50 for every item shown.
Respond numerically; units are nM and should not be typed.

Ask: // query IC50 value for entry N=C(N)c1ccc(OCCCCCOc2ccc(C(=N)N)cc2)cc1 [PENTAMIDINE]
Result: 830

Ask: // query IC50 value for entry CC(C)Oc1cc(NC(=N)c2ccccn2)ccc1-c1ccc(-c2ccc(NC(=N)c3ccccn3)cc2OC(C)C)o1
Result: 87

Ask: // query IC50 value for entry NC[C@@H]1O[C@H](O[C@H]2[C@@H](O)[C@H](O[C@@H]3[C@@H](O)[C@H](N)C[C@H](N)[C@H]3O[C@H]3O[C@H](CO)[C@@H](O)[C@H](O)[C@H]3N)O[C@@H]2CO)[C@H](N)[C@@H](O)[C@@H]1O [PAROMOMYCIN]
Result: 19000

Ask: // query IC50 value for entry C[C@@H]1[C@H](O)[C@@H](C)/C=C/C=C/C=C/C=C/C=C/C=C/C=C/[C@H](O[C@@H]2O[C@H](C)[C@@H](O)[C@H](N)[C@@H]2O)C[C@@H]2O[C@](O)(C[C@@H](O)C[C@@H](O)[C@H](O)CC[C@@H](O)C[C@@H](O)CC(=O)O[C@H]1C)C[C@H](O)[C@H]2C(=O)O [AMPHOTERICIN B]
Result: 140

Ask: // query IC50 value for entry CCOc1cc(NC(=N)c2ccccn2)ccc1-c1ccc(-c2ccc(NC(=N)c3ccccn3)cc2OCC)o1
Result: 120

====

TEST_PROTOCOL: Tmax in Swiss Webster mouse at 5 mg/kg, iv by HPLC-MS/MS analysis
Assay type: ADME, organism-based
Parameters: dose 5 mg/kg, route intravenous
ASSAY_CONDITIONS: in vivo
PROPERTY: Tmax (min)
Respond numerically; units are min and should not be typed.

Ask: // query Tmax value for entry CC(C)Oc1cc(NC(=N)c2ccccn2)ccc1-c1ccc(-c2ccc(NC(=N)c3ccccn3)cc2OC(C)C)o1
Result: 5

====

TEST_PROTOCOL: Cmax in Swiss Webster mouse at 16.5 mg/kg, po by HPLC-MS/MS analysis
Type: ADME, organism-based
Set-up: dose 16.5 mg/kg, route oral
ASSAY_CONDITIONS: in vivo
PROPERTY: Cmax
In your response, the unit should come after the numeric value.

Ask: // query Cmax value for entry CCOc1cc(NC(=N)c2ccccn2)ccc1-c1ccc(-c2ccc(NC(=N)c3ccccn3)cc2OCC)o1
Result: 20 nM

====

TEST_PROTOCOL: Half life in mouse liver microsome by HPLC-MS/MS analysis in presence of 1 uM NADPH
Assay type: ADME
ASSAY_CONDITIONS: liver microsomes
PROPERTY: half-life (min)
Respond numerically; units are min and should not be typed.

Ask: // query half-life value for entry CCOc1cc(NC(=N)c2ccccn2)ccc1-c1ccc(-c2ccc(NC(=N)c3ccccn3)cc2OCC)o1
Result: 47

====

TEST_PROTOCOL: Tmax in Swiss Webster mouse at 70 mg/kg, po by HPLC-MS/MS analysis
Format: ADME, organism-based
Set-up: dose 70 mg/kg, route oral
ASSAY_CONDITIONS: in vivo
PROPERTY: Tmax (h)
Respond numerically; units are h and should not be typed.

Ask: // query Tmax value for entry CC(C)Oc1cc(NC(=N)c2ccccn2)ccc1-c1ccc(-c2ccc(NC(=N)c3ccccn3)cc2OC(C)C)o1
Result: 1
